Details: in sec-butanol, 318.15 K
EXPERIMENTAL READOUT: solubility (mole fraction)
The reply should be a number, written without any unit.

Indicate its recorded solubility (mole fraction); the compound in question is Nc1n[nH]c(=S)s1 0.00667

====

Conditions: in n-butanol, 318.15 K
EXPERIMENTAL READOUT: solubility (mole fraction)
The reply should be a number, written without any unit.

Indicate its recorded solubility (mole fraction); the molecule in question is Nc1n[nH]c(=S)s1 0.00546

====

Settings: in acetone, 293.15 K
EXPERIMENTAL READOUT: solubility (mole fraction)
The reply should be a number, written without any unit.

Indicate its recorded solubility (mole fraction); the compound in question is Nc1n[nH]c(=S)s1 0.0114

Data provenance is BigSolDB 2.1.
